# Test system: T47D cells
# experiment: Cell-based assay: anti-proliferative activity, Cell Counting Kit-8, 72 hours (T47D)
# stated_conditions: Homo sapiens, T47D, 72 h
Counter-ions that a name gives are not always drawn.

{"compound": "CC(=O)c1cnc2ccc(-c3cc(F)c(O)c(Cl)c3)cc2c1Nc1cnc(N2CCNCC2)nc1", "IC50": "0.025 µM"}
{"compound": "COc1cc(-c2ccc3ncc(C(=O)C4CC4)c(NC4CCC(N5CCC(F)(F)C5)CC4)c3c2)cc(Cl)c1O (stereo not shown)", "IC50": "1 µM"}
{"compound": "COc1cc(-c2ccc3ncc(C(C)=O)c(N[C@@H]4CCC[C@@H](CN(C)C)C4)c3c2)cc(Cl)c1O", "IC50": "0.18 µM"}
{"compound": "CS(=O)(=O)c1cnc2ccc(-c3cc(Cl)c(O)c(Cl)c3)cc2c1Nc1cccc(CCN2CCCC2)c1 [Example 883, hydrochloride]", "IC50": "1.4 µM"}
